Origin of measurements: ChEMBL document CHEMBL1649564

- testName: Plasma concentration in mouse infected with Candida albicans at 60 mg/kg, po after 12 hrs
- Format: ADME, organism-based
- Parameters: dose 60 mg/kg, route oral
- conditionsUsed: read-out: MIC
metric: concentration at 12 h (ng/mL)
A number alone suffices; assume ng/mL.

Lookup result for C[C@@H](c1ncncc1F)[C@](O)(Cn1cncn1)c1ccc(F)cc1F [VORICONAZOLE] ; measured concentration at 12 h: 5370

----------
- testName: Plasma concentration in mouse infected with Candida albicans at 10 mg/kg, ip after 3 hrs
- Type: ADME, organism-based
- Set-up: dose 10 mg/kg, route intraperitoneal
- conditionsUsed: read-out: MIC
Numbered stars: 1 amine (or outer) side, 2 acyl side, 3 side chain; on linkers, the order of the positions; unused ones are H or OH. Bridge positions count the residues as written; N and C are the ends. Square brackets hold non-standard residues; d marks the D form. Peptide text beside a SMILES is read from it. * marks the point of attachment. pTerphenylCO(4''-OnC5H11) = CCCCCOc1ccc(-c2ccc(-c3ccc(C(=O)*)cc3)cc2)cc1; Orn(4R-OH,5R-OH) = O=C([C@H](C[C@@H](O)[C@@H](O)N[*:3])N[*:1])[*:2]; hTyr(3S-OH,4S-OH) = N[C@H](C(=O)O)[C@H](O)[C@@H](O)c1ccc(O)cc1; Pro(3S-OH,4S-Me) = C[C@H]1CN[C@H](C(=O)O)[C@H]1O; Hyp = O=C(O)[C@@H]1C[C@@H](O)CN1
metric: concentration at 3 h
For clarity, give the value followed by its unit.

Lookup result for CCCCCOc1ccc(-c2ccc(-c3ccc(C(=O)N[C@H]4C[C@@H](O)[C@@H](O)NC(=O)[C@@H]5[C@@H](O)[C@@H](C)CN5C(=O)[C@H]([C@@H](C)O)NC(=O)[C@H]([C@H](O)[C@@H](O)c5ccc(O)cc5)NC(=O)[C@@H]5C[C@@H](O)CN5C(=O)[C@H]([C@@H](C)O)NC4=O)cc3)cc2)cc1 [ANIDULAFUNGIN] ({pTerphenylCO(4''-OnC5H11)}-[Orn(4R-OH,5R-OH)]T[Hyp][hTyr(3S-OH,4S-OH)]T[Pro(3S-OH,4S-Me)]; lactam 1-C) ; measured concentration at 3 h: 4910 ng/mL

----------
- testName: Plasma concentration in mouse infected with Candida albicans at 60 mg/kg, po after 1 hr
- Type: ADME, organism-based
- Design: dose 60 mg/kg, route oral
- conditionsUsed: read-out: MIC
metric: concentration at 1 h (ng/mL)
A number alone suffices; assume ng/mL.

Lookup result for C[C@@H](c1ncncc1F)[C@](O)(Cn1cncn1)c1ccc(F)cc1F ; measured concentration at 1 h: 7410

----------
- testName: Plasma concentration in mouse infected with Candida albicans at 5 mg/kg, ip after 3 hrs
- Assay type: ADME, organism-based
- Parameters: dose 5 mg/kg, route intraperitoneal
- conditionsUsed: read-out: MIC
Numbered stars: 1 amine (or outer) side, 2 acyl side, 3 side chain; on linkers, the order of the positions; unused ones are H or OH. Bridge positions count the residues as written; N and C are the ends. Square brackets hold non-standard residues; d marks the D form. Peptide text beside a SMILES is read from it. * marks the point of attachment. pTerphenylCO(4''-OnC5H11) = CCCCCOc1ccc(-c2ccc(-c3ccc(C(=O)*)cc3)cc2)cc1; Orn(4R-OH,5R-OH) = O=C([C@H](C[C@@H](O)[C@@H](O)N[*:3])N[*:1])[*:2]; hTyr(3S-OH,4S-OH) = N[C@H](C(=O)O)[C@H](O)[C@@H](O)c1ccc(O)cc1; Pro(3S-OH,4S-Me) = C[C@H]1CN[C@H](C(=O)O)[C@H]1O; Hyp = O=C(O)[C@@H]1C[C@@H](O)CN1
metric: concentration at 3 h
For clarity, give the value followed by its unit.

Lookup result for CCCCCOc1ccc(-c2ccc(-c3ccc(C(=O)N[C@H]4C[C@@H](O)[C@@H](O)NC(=O)[C@@H]5[C@@H](O)[C@@H](C)CN5C(=O)[C@H]([C@@H](C)O)NC(=O)[C@H]([C@H](O)[C@@H](O)c5ccc(O)cc5)NC(=O)[C@@H]5C[C@@H](O)CN5C(=O)[C@H]([C@@H](C)O)NC4=O)cc3)cc2)cc1 [ANIDULAFUNGIN] ({pTerphenylCO(4''-OnC5H11)}-[Orn(4R-OH,5R-OH)]T[Hyp][hTyr(3S-OH,4S-OH)]T[Pro(3S-OH,4S-Me)]; lactam 1-C) ; measured concentration at 3 h: 1730 ng/mL

----------
- testName: Plasma concentration in mouse infected with Candida albicans at 10 mg/kg, ip after 12 hrs
- Type: ADME, organism-based
- Design: dose 10 mg/kg, route intraperitoneal
- conditionsUsed: read-out: MIC
Numbered stars: 1 amine (or outer) side, 2 acyl side, 3 side chain; on linkers, the order of the positions; unused ones are H or OH. Bridge positions count the residues as written; N and C are the ends. Square brackets hold non-standard residues; d marks the D form. Peptide text beside a SMILES is read from it. * marks the point of attachment. pTerphenylCO(4''-OnC5H11) = CCCCCOc1ccc(-c2ccc(-c3ccc(C(=O)*)cc3)cc2)cc1; Orn(4R-OH,5R-OH) = O=C([C@H](C[C@@H](O)[C@@H](O)N[*:3])N[*:1])[*:2]; hTyr(3S-OH,4S-OH) = N[C@H](C(=O)O)[C@H](O)[C@@H](O)c1ccc(O)cc1; Pro(3S-OH,4S-Me) = C[C@H]1CN[C@H](C(=O)O)[C@H]1O; Hyp = O=C(O)[C@@H]1C[C@@H](O)CN1
metric: concentration at 12 h (ng/mL)
A number alone suffices; assume ng/mL.

Lookup result for CCCCCOc1ccc(-c2ccc(-c3ccc(C(=O)N[C@H]4C[C@@H](O)[C@@H](O)NC(=O)[C@@H]5[C@@H](O)[C@@H](C)CN5C(=O)[C@H]([C@@H](C)O)NC(=O)[C@H]([C@H](O)[C@@H](O)c5ccc(O)cc5)NC(=O)[C@@H]5C[C@@H](O)CN5C(=O)[C@H]([C@@H](C)O)NC4=O)cc3)cc2)cc1 [ANIDULAFUNGIN] ({pTerphenylCO(4''-OnC5H11)}-[Orn(4R-OH,5R-OH)]T[Hyp][hTyr(3S-OH,4S-OH)]T[Pro(3S-OH,4S-Me)]; lactam 1-C) ; measured concentration at 12 h: 2730

----------
- testName: Plasma concentration in mouse infected with Candida albicans at 5 mg/kg, ip after 12 hrs
- Assay type: ADME, organism-based
- Set-up: dose 5 mg/kg, route intraperitoneal
- conditionsUsed: read-out: MIC
Numbered stars: 1 amine (or outer) side, 2 acyl side, 3 side chain; on linkers, the order of the positions; unused ones are H or OH. Bridge positions count the residues as written; N and C are the ends. Square brackets hold non-standard residues; d marks the D form. Peptide text beside a SMILES is read from it. * marks the point of attachment. pTerphenylCO(4''-OnC5H11) = CCCCCOc1ccc(-c2ccc(-c3ccc(C(=O)*)cc3)cc2)cc1; Orn(4R-OH,5R-OH) = O=C([C@H](C[C@@H](O)[C@@H](O)N[*:3])N[*:1])[*:2]; hTyr(3S-OH,4S-OH) = N[C@H](C(=O)O)[C@H](O)[C@@H](O)c1ccc(O)cc1; Pro(3S-OH,4S-Me) = C[C@H]1CN[C@H](C(=O)O)[C@H]1O; Hyp = O=C(O)[C@@H]1C[C@@H](O)CN1
metric: concentration at 12 h (ng/mL)
A number alone suffices; assume ng/mL.

Lookup result for CCCCCOc1ccc(-c2ccc(-c3ccc(C(=O)N[C@H]4C[C@@H](O)[C@@H](O)NC(=O)[C@@H]5[C@@H](O)[C@@H](C)CN5C(=O)[C@H]([C@@H](C)O)NC(=O)[C@H]([C@H](O)[C@@H](O)c5ccc(O)cc5)NC(=O)[C@@H]5C[C@@H](O)CN5C(=O)[C@H]([C@@H](C)O)NC4=O)cc3)cc2)cc1 [ANIDULAFUNGIN] ({pTerphenylCO(4''-OnC5H11)}-[Orn(4R-OH,5R-OH)]T[Hyp][hTyr(3S-OH,4S-OH)]T[Pro(3S-OH,4S-Me)]; lactam 1-C) ; measured concentration at 12 h: 1180

----------
- testName: Plasma concentration in mouse infected with Candida albicans at 5 mg/kg, ip after 6 hrs
- Type: ADME, organism-based
- Parameters: dose 5 mg/kg, route intraperitoneal
- conditionsUsed: read-out: MIC
Numbered stars: 1 amine (or outer) side, 2 acyl side, 3 side chain; on linkers, the order of the positions; unused ones are H or OH. Bridge positions count the residues as written; N and C are the ends. Square brackets hold non-standard residues; d marks the D form. Peptide text beside a SMILES is read from it. * marks the point of attachment. pTerphenylCO(4''-OnC5H11) = CCCCCOc1ccc(-c2ccc(-c3ccc(C(=O)*)cc3)cc2)cc1; Orn(4R-OH,5R-OH) = O=C([C@H](C[C@@H](O)[C@@H](O)N[*:3])N[*:1])[*:2]; hTyr(3S-OH,4S-OH) = N[C@H](C(=O)O)[C@H](O)[C@@H](O)c1ccc(O)cc1; Pro(3S-OH,4S-Me) = C[C@H]1CN[C@H](C(=O)O)[C@H]1O; Hyp = O=C(O)[C@@H]1C[C@@H](O)CN1
metric: concentration at 6 h (ng/mL)
A number alone suffices; assume ng/mL.

Lookup result for CCCCCOc1ccc(-c2ccc(-c3ccc(C(=O)N[C@H]4C[C@@H](O)[C@@H](O)NC(=O)[C@@H]5[C@@H](O)[C@@H](C)CN5C(=O)[C@H]([C@@H](C)O)NC(=O)[C@H]([C@H](O)[C@@H](O)c5ccc(O)cc5)NC(=O)[C@@H]5C[C@@H](O)CN5C(=O)[C@H]([C@@H](C)O)NC4=O)cc3)cc2)cc1 [ANIDULAFUNGIN] ({pTerphenylCO(4''-OnC5H11)}-[Orn(4R-OH,5R-OH)]T[Hyp][hTyr(3S-OH,4S-OH)]T[Pro(3S-OH,4S-Me)]; lactam 1-C) ; measured concentration at 6 h: 1660
